experiment: Tmax in ICR mouse brain at 10 mg/kg, iv; type: ADME, organism-based; design: dose 10 mg/kg, route intravenous

{"cpd smiles": "COc1cc(/C=C/c2cccc(/C=C/c3ccc(N(C)C)c(OC)c3)c2)ccc1N(C)C", "units of measure": "min", "Tmax": 24}

----------
experiment: Tmax in ICR mouse plasma at 10 mg/kg, iv; assay type: ADME, organism-based; set-up: dose 10 mg/kg, route intravenous

{"cpd smiles": "COc1cc(/C=C/c2cccc(/C=C/c3ccc(N(C)C)c(OC)c3)c2)ccc1N(C)C", "Tmax (min)": 4.8}

----------
assay: AUC (0 to 24 hrs) in ICR mouse plasma at 10 mg/kg, iv; type: ADME, organism-based; parameters: time < 24 hr, dose 10 mg/kg, route intravenous
metric: AUC(0-t) at 24 h (ng·h/mL)

{"cpd smiles": "COc1cc(/C=C/c2cccc(/C=C/c3ccc(N(C)C)c(OC)c3)c2)ccc1N(C)C", "metric": "AUC(0-t) at 24 h", "data value": 31600}
